# System: cultured nerve cells
# run_description: Action of protecting cultured nerve cells from glutamic acid toxicity (LDH leakage)
# Type: cell-based, Wistar rat
# run_parameters: rat fetal cerebral cortex cells, 10 mM glutamic acid, 24 hours, read-out: ED50 (the source's name)
Each entry below carries its recorded EC50.
Value expressed in nM; do not type the unit.

Take a look at these entries with their results.
1) CCCCCCCc1cccc2[nH]c3c(c12)C[C@@]1(O)[C@H]2Cc4ccc(O)c5c4[C@@]1(CCN2CC1CC1)[C@H]3O5 :: 400
2) Cc1cc2c3c([nH]c2c2ccccc12)[C@@H]1Oc2c(O)ccc4c2[C@@]12CCN(CC1CC1)[C@H](C4)[C@]2(O)C3 :: 93
3) Oc1ccc2c3c1O[C@H]1c4c(c5ccc6ccccc6c5n4Cc4ccccc4)C[C@@]4(O)[C@@H](C2)N(CC2CC2)CC[C@]314 :: 9.3
4) CCCCCCCc1ccc2c3c([nH]c2c1)[C@@H]1Oc2c(O)ccc4c2[C@@]12CCN(CC1CC1)[C@H](C4)[C@]2(O)C3 :: 200

Short answer for Oc1ccc2c3c1O[C@H]1c4[nH]c5c(cc6c7c(cccc75)CC6)c4C[C@@]4(O)[C@@H](C2)N(CC2CC2)CC[C@]314 : EC50 was 53

Short answer for Oc1ccc2c3c1O[C@H]1c4[nH]c5c(ccc6ccccc65)c4C[C@@]4(O)[C@@H](C2)N(CC2CC2)CC[C@]314 : EC50 was 33

Short answer for Cn1c2c(c3ccc4ccccc4c31)C[C@@]1(O)[C@H]3Cc4ccc(O)c5c4[C@@]1(CCN3CC1CC1)[C@H]2O5 : EC50 was 26

Short answer for Oc1ccc2c3c1O[C@H]1c4c(c5ccc6ccccc6c5n4CCCN=C=S)C[C@@]4(O)[C@@H](C2)N(CC2CC2)CC[C@]314 : EC50 was 93

Short answer for OCCn1c2c(c3ccc4ccccc4c31)C[C@@]1(O)[C@H]3Cc4ccc(O)c5c4[C@@]1(CCN3CC1CC1)[C@H]2O5 : EC50 was 67

Short answer for Oc1ccc2c3c1O[C@H]1c4[nH]c5c(cc(F)c6ccccc65)c4C[C@@]4(O)[C@@H](C2)N(CC2CC2)CC[C@]314 : EC50 was 86

Short answer for Oc1ccc2c3c1O[C@H]1c4c(c5ccc6ccccc6c5n4Cc4ccc(F)cc4)C[C@@]4(O)[C@@H](C2)N(CC2CC2)CC[C@]314 : EC50 was 15

Short answer for Oc1ccc2c3c1O[C@H]1c4[nH]c5c6c(ccc5c4C[C@@]4(O)[C@@H](C2)N(CC2CC2)CC[C@]314)-c1ccccc1C6 : EC50 was 27

Short answer for Oc1ccc2c3c1O[C@H]1c4[nH]c5c6c(ccc5c4C[C@@]4(O)[C@@H](C2)N(CC2CC2)CC[C@]314)Cc1ccccc1-6 : EC50 was 50

###

# System: cultured nerve cells
# run_description: Action of protecting cultured nerve cells from glutamic acid toxicity (LDH leakage)
# Type: cell-based, Wistar rat
# run_parameters: rat fetal cerebral cortex cells, 10 mM glutamic acid, 24 hours, read-out: ED50 (the source's name)
property_name: EC50 (nM)
Value expressed in nM; do not type the unit.

Short answer for Oc1ccc2c3c1O[C@H]1c4[nH]c5c(cc(-c6ccccc6)c6ccccc65)c4C[C@@]4(O)[C@@H](C2)N(CC2CC2)CC[C@]314 : EC50 was 150

Short answer for O[C@@]12Cc3c([nH]c4c3ccc3ccccc34)[C@@H]3Oc4cccc5c4[C@@]31CCN(CC1CC1)[C@@H]2C5 : EC50 was 900

Short answer for Oc1ccc2c3c1O[C@H]1c4[nH]c5c(cc6c7c(cccc75)-c5ccccc5-6)c4C[C@@]4(O)[C@@H](C2)N(CC2CC2)CC[C@]314 : EC50 was 200

Short answer for Oc1ccc2c3c1O[C@H]1c4c(c5ccccc5n4-c4ccccc4)C[C@@]4(O)[C@@H](C2)N(CC2CC2)CC[C@]314 : EC50 was 80

Short answer for O=C(/C=C/c1cccc(C(F)(F)F)c1)NCCCn1c2c(c3ccc4ccccc4c31)C[C@@]1(O)[C@H]3Cc4ccc(O)c5c4[C@@]1(CCN3CC1CC1)[C@H]2O5 : EC50 was 110

Short answer for Oc1ccc2c3c1O[C@H]1c4c(c5ccccc5n4CCCN=C=S)C[C@@]4(O)[C@@H](C2)N(CC2CC2)CC[C@]314 : EC50 was 110

Short answer for Oc1ccc2c3c1O[C@H]1c4[nH]c5c(ccc6cccc(Cl)c65)c4C[C@@]4(O)[C@@H](C2)N(CC2CC2)CC[C@]314 : EC50 was 35
